Test system: MDA-MB436 triple-negative breast
TEST DETAILS: Sulphorodamine B test at single concentration, MDA-MB436
Assay type: cell-based
RECORDED CONDITIONS: Homo sapiens, MDA-MB-436; 500 nM, 72 h
Procedure: The antiproliferative activity of novel Hsp90 inhibitors was also evaluated on various cancerous cell lines by means of the sulphorodamine B test (i.e., NCI-H460 non-small cell lung carcinoma, A431 epidermoid, A2780 ovarian, MDA-MB436 triple-negative breast, U87MG glioblastoma, A498 renal, HCT116 colon, MeWo melanoma, MiaPaCa2 pancreas, HeLa cervix uteri, NB4 promyelocytic leukemia). […]
Field: inhibition at 0.5 µM. Provide a value for each of the molecules that follow.

MOLECULE | READOUT LABEL | MEAS VALUE
CC(C)c1cc(-n2nnc(C(=O)NC3CCCCC3)c2-c2ccc(CN3CCOCC3)cc2)c(O)cc1O | inhibition at 0.5 µM | ≥ 50%
CCCCCCNC(=O)c1nnn(-c2cc(C(C)C)c(O)cc2O)c1-c1ccc(CN2CCOCC2)cc1 | inhibition at 0.5 µM | ≥ 50%

Now consider the entry below.
Please give the documented inhibition at 0.5 µM of CCOC(=O)c1nnn(-c2cc(Cl)c(O)cc2O)c1-c1ccc(F)cc1 [Example 32, reference compound]
< 30%
